The reported measurements were obtained from patent US7276484B2.

Molecular target: Human brain β-Secretase (Homo sapiens)
Construct: Human brain β-Secretase from concentrated HiQ pool prepared Jul; from tissue; host or cells: human brain
Sequence (P56817 46-501): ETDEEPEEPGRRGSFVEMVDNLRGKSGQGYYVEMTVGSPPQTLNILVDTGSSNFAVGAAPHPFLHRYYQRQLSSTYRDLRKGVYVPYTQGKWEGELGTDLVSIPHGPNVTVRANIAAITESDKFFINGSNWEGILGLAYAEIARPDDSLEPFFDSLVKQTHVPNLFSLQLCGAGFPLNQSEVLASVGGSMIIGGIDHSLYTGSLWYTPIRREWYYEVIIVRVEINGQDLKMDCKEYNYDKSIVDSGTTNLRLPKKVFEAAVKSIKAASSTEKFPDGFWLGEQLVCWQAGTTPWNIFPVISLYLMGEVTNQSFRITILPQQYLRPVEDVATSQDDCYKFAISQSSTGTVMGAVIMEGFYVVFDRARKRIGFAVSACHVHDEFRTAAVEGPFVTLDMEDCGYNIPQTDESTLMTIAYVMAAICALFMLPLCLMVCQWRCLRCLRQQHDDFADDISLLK
Assay: MBP-C125 enzyme inhibition assay (ELISA detection of β-secretase cleavage of MBP-C125 substrate)
Assay type: biochemical
Details: pH 4.5, 37° C., 90 minutes, read-out: IC50 Grouping
METRIC: IC50

2-carboxy-diphenylether coupled with the peptide 3,5-difluoroPhe/Sta-Val-Ala-Glu-Phe [Example 29] ... < 10 µM

IN: Entry under review: glutaric acid piperidine amide coupled with the derivatized Sta-Val-Ala-Glu-Phe pentapeptide [Example 33] . Reported IC50?
OUT: 10 to 99 µM

IN: Cool, now geminal dimethyl glutaric dimethylamide group coupled to the derivatized Sta-Val-Ala-Glu-Phe pentapeptide [Example 32]
OUT: 10 to 99 µM

IN: Same for 4-carboxycinnoline coupled to the 3,5-difluoroPhe/Sta-Val-Ala-Glu-Phe [Example 44]
OUT: 10 to 99 µM
